Ref: patent US7109243B2

Entries and their Ki
system: Cathepsin S (Homo sapiens, UniProt P25774)
Sequence (P25774 115-331, species assumed): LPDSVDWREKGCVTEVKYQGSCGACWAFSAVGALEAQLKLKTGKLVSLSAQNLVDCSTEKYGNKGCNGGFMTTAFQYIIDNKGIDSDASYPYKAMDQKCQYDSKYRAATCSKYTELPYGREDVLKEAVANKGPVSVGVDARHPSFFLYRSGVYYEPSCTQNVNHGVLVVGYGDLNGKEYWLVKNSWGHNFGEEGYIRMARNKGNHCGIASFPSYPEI
assay-remarks: Cathepsin S inhibition assay (fluorogenic peptide substrate)
Type: biochemical
condition-info: Table II, compounds of Formula I; read-out: Ki Cat. S
metric: Ki

>>> print(df.to_string())
                                   compound  observed_measurement
0  O=C(Cc1nnn[nH]1)N[C@@H](CC1CCCCC1)C(=O)NCCNc1ccc(F)cc1             < 1000 nM
1  COc1ccc(NCCNC(=O)[C@H](CC2CCCCC2)NC(=O)[C@H](O)c2ccccc2)cc1            < 10000 nM
2  COc1ccc(NCCNC(=O)C(NC(=O)c2cccc(C)c2)c2ccccc2OCc2ccccc2)cc1 (centres unmarked)              < 100 nM
3  Cc1cccc(-c2ccc(C(=O)N[C@@H](CC3CCCCC3)C(=O)NCCNc3ccc(OC(F)(F)F)cc3)s2)c1              < 100 nM
4  COc1ccc(NCCNC(=O)[C@H](Cc2ccc(F)c(F)c2)NC(=O)c2cccc(C)c2)cc1              < 100 nM
